# System: NCI-H23 complex spheroids with HUVEC/MSC, viability
# Assay Name: Anticancer human tumor NCI-H23 cell line growth inhibition [RAS];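 further: spheroids exposed to compound for 7 days; 100% = DMSO vehicle control viability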
# Study Conditions: second compound 0.3 µM; first compound 0.00316 µM; active compounds read low

{"Molecule": "Nc1ccn(C2OC(CO)C(O)C2(F)F)c(=O)n1 (centres undefined) + CCn1c(-c2cc(N3CCN(C)CC3)cnc2C(C)OC)c2c3cc(ccc31)-c1csc(n1)CC(NC(=O)C1CC1C)C(=O)N1CCCC(N1)C(=O)OCC(C)(C)C2", "viability, T/C / %": 15.5}
{"Molecule": "C=CC(=O)N1CCN(c2nc(OCC3CCCN3C)nc3c(F)c(-c4nc(N)cc(C)c4C(F)(F)F)c(Cl)cc23)C(C)C1 (centres undefined) + CCn1c(-c2cc(N3CCN(C)CC3)cnc2C(C)OC)c2c3cc(ccc31)-c1csc(n1)CC(NC(=O)C1CC1C)C(=O)N1CCCC(N1)C(=O)OCC(C)(C)C2", "viability, T/C / %": 17.2}
{"Molecule": "Nc1ccn(C2OC(CO)C(O)C2(F)F)c(=O)n1 (centres undefined) + CCn1c(-c2cccnc2C(C)OC)c2c3cc(ccc31)N1CCOC(CC(NC(=O)C(C(C)C)N(C)C(=O)C3(F)CCN(C(=O)C#CC(C)(C)N(C)C)CC3)C(=O)N3CCCC(N3)C(=O)OCC(C)(C)C2)C1", "viability, T/C / %": 7.88}
{"Molecule": "C=CC(=O)Nc1cc(Nc2nccc(-c3cn(C)c4ccccc34)n2)c(OC)cc1N(C)CCN(C)C + CCn1c(-c2cccnc2C(C)OC)c2c3cc(ccc31)N1CCOC(CC(NC(=O)C(C(C)C)N(C)C(=O)C3(F)CCN(C(=O)C#CC(C)(C)N(C)C)CC3)C(=O)N3CCCC(N3)C(=O)OCC(C)(C)C2)C1", "viability, T/C / %": 25.5}

====

# System: NCI-H23 complex spheroids with HUVEC/MSC, viability
# Assay Name: Anticancer human tumor NCI-H23 cell line growth inhibition [RAS];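 further: spheroids exposed to compound for 7 days; 100% = DMSO vehicle control viability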
# Study Conditions: second compound 1 µM; first compound 0.316 µM; active compounds read low

{"Compound": "CC1(O)CCCC1n1c(=O)c(C(F)F)cc2cnc(NC3CCN(S(C)(=O)=O)CC3)nc21 (stereo not drawn) + C#Cc1c(F)ccc2cc(O)cc(-c3ncc4c(N5CC6CCC(C5)N6)nc(OCC56CCCN5CC(F)C6)nc4c3F)c12", "viability, T/C": "46.6%"}
{"Compound": "Cc1nc(N2CCC3(CC2)COC(C)C3N)c(CO)nc1Sc1ccnc(N)c1Cl (stereo not drawn) + C=CC(=O)N1CCN(c2nc(OCC3CCCN3C)nc3c(F)c(-c4nc(N)cc(C)c4C(F)(F)F)c(Cl)cc23)C(C)C1", "viability, T/C": "26.6%"}
{"Compound": "NC1c2ccccc2OC12CCN(c1cnc3c(N4CCCc5ncccc54)n[nH]c3n1)CC2 (stereo not drawn) + C#Cc1c(F)ccc2cc(O)cc(-c3ncc4c(N5CC6CCC(C5)N6)nc(OCC56CCCN5CC(F)C6)nc4c3F)c12", "viability, T/C": "32.8%"}

====

# Tested on: NCI-H23 complex spheroids with HUVEC/MSC, viability
# Assay Name: Anticancer human tumor NCI-H23 cell line growth inhibition [RAS]; active = viability on the fitted dose curve at most 10% of control; inactive = the rest;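 further: spheroids exposed to compound for 7 days; 100% = DMSO vehicle control viability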
# Study Conditions: second compound 0.00949 µM; first compound 10 µM
Possible outcomes: yes (1) (active), no (0) (inactive)

{"Molecule": "C[C@@H](NC(=O)c1ncnc(N)c1Cl)c1ncc(C(=O)Nc2cc(C(F)(F)F)c(Cl)cn2)s1 + CCn1c(-c2cccnc2C(C)OC)c2c3cc(ccc31)N1CCOC(CC(NC(=O)C(C(C)C)N(C)C(=O)C3(F)CCN(C(=O)C#CC(C)(C)N(C)C)CC3)C(=O)N3CCCC(N3)C(=O)OCC(C)(C)C2)C1", "Assigned Class": "no (0)"}
{"Molecule": "CC1(O)CCCC1n1c(=O)c(C(F)F)cc2cnc(NC3CCN(S(C)(=O)=O)CC3)nc21 (configuration not stated) + CCn1c(-c2cccnc2C(C)OC)c2c3cc(ccc31)N1CCOC(CC(NC(=O)C(C(C)C)N(C)C(=O)C3(F)CCN(C(=O)C#CC(C)(C)N(C)C)CC3)C(=O)N3CCCC(N3)C(=O)OCC(C)(C)C2)C1", "Assigned Class": "yes (1)"}

====

# Tested on: NCI-H23 complex spheroids with HUVEC/MSC, viability
# Assay Name: Anticancer human tumor NCI-H23 cell line growth inhibition [RAS]; active means viability on the fitted dose curve at most 10% of control; inactive means the rest;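 further: spheroids exposed to compound for 7 days; 100% = DMSO vehicle control viability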
# Study Conditions: second compound 0.3 µM; first compound 1 µM
Possible outcomes: 1 for active, 0 for inactive

{"Molecule": "O=C(c1ccc(F)c(F)c1Nc1ccc(I)cc1F)N1CC(O)([C@@H]2CCCCN2)C1 + CCn1c(-c2cc(N3CCN(C)CC3)cnc2C(C)OC)c2c3cc(ccc31)-c1csc(n1)CC(NC(=O)C1CC1C)C(=O)N1CCCC(N1)C(=O)OCC(C)(C)C2", "Assigned Class": 1}
{"Molecule": "CC(C)NCC(C(=O)N1CCN(c2ncnc3c2C(C)CC3O)CC1)c1ccc(Cl)cc1 (centres undefined) + CCn1c(-c2cc(N3CCN(C)CC3)cnc2C(C)OC)c2c3cc(ccc31)-c1csc(n1)CC(NC(=O)C1CC1C)C(=O)N1CCCC(N1)C(=O)OCC(C)(C)C2", "Assigned Class": 0}
{"Molecule": "C=CC(=O)N1CCN(c2nc(OCC3CCCN3C)nc3c(F)c(-c4nc(N)cc(C)c4C(F)(F)F)c(Cl)cc23)C(C)C1 (centres undefined) + CCn1c(-c2cccnc2C(C)OC)c2c3cc(ccc31)N1CCOC(CC(NC(=O)C(C(C)C)N(C)C(=O)C3(F)CCN(C(=O)C#CC(C)(C)N(C)C)CC3)C(=O)N3CCCC(N3)C(=O)OCC(C)(C)C2)C1", "Assigned Class": 0}
{"Molecule": "Cc1nc(N2CCC3(CC2)COC(C)C3N)c(CO)nc1Sc1ccnc(N)c1Cl (centres undefined) + CCn1c(-c2cc(N3CCN(C)CC3)cnc2C(C)OC)c2c3cc(ccc31)-c1csc(n1)CC(NC(=O)C1CC1C)C(=O)N1CCCC(N1)C(=O)OCC(C)(C)C2", "Assigned Class": 0}

====

# Tested on: NCI-H23 complex spheroids with HUVEC/MSC, viability
# Assay Name: Anticancer human tumor NCI-H23 cell line growth inhibition [RAS]; active = viability on the fitted dose curve at most 10% of control; inactive = the rest;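 further: spheroids exposed to compound for 7 days; 100% = DMSO vehicle control viability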
# Study Conditions: second compound 0.000949 µM; first compound 1 µM
Possible outcomes: active, inactive

{"Compound": "CC1(O)CCCC1n1c(=O)c(C(F)F)cc2cnc(NC3CCN(S(C)(=O)=O)CC3)nc21 (stereo not given) + CCn1c(-c2cc(N3CCN(C)CC3)cnc2C(C)OC)c2c3cc(ccc31)-c1csc(n1)CC(NC(=O)C1CC1C)C(=O)N1CCCC(N1)C(=O)OCC(C)(C)C2", "Assigned Class": "inactive"}
{"Compound": "CC(Nc1ccc2c(c1)OCCn1cc(N3C(=O)OCC3C(F)F)nc1-2)C(N)=O (stereo not given) + CCn1c(-c2cccnc2C(C)OC)c2c3cc(ccc31)N1CCOC(CC(NC(=O)C(C(C)C)N(C)C(=O)C3(F)CCN(C(=O)C#CC(C)(C)N(C)C)CC3)C(=O)N3CCCC(N3)C(=O)OCC(C)(C)C2)C1", "Assigned Class": "inactive"}
{"Compound": "CC(C)NCC(C(=O)N1CCN(c2ncnc3c2C(C)CC3O)CC1)c1ccc(Cl)cc1 (stereo not given) + CCn1c(-c2cc(N3CCN(C)CC3)cnc2C(C)OC)c2c3cc(ccc31)-c1csc(n1)CC(NC(=O)C1CC1C)C(=O)N1CCCC(N1)C(=O)OCC(C)(C)C2", "Assigned Class": "inactive"}
{"Compound": "C[C@@H](NC(=O)c1ncnc(N)c1Cl)c1ncc(C(=O)Nc2cc(C(F)(F)F)c(Cl)cn2)s1 + CCn1c(-c2cccnc2C(C)OC)c2c3cc(ccc31)N1CCOC(CC(NC(=O)C(C(C)C)N(C)C(=O)C3(F)CCN(C(=O)C#CC(C)(C)N(C)C)CC3)C(=O)N3CCCC(N3)C(=O)OCC(C)(C)C2)C1", "Assigned Class": "inactive"}
{"Compound": "NC1c2ccccc2OC12CCN(c1cnc3c(N4CCCc5ncccc54)n[nH]c3n1)CC2 (stereo not given) + CCn1c(-c2cc(N3CCN(C)CC3)cnc2C(C)OC)c2c3cc(ccc31)-c1csc(n1)CC(NC(=O)C1CC1C)C(=O)N1CCCC(N1)C(=O)OCC(C)(C)C2", "Assigned Class": "inactive"}
{"Compound": "Cc1nc(N2CCC3(CC2)COC(C)C3N)c(CO)nc1Sc1ccnc(N)c1Cl (stereo not given) + CCn1c(-c2cc(N3CCN(C)CC3)cnc2C(C)OC)c2c3cc(ccc31)-c1csc(n1)CC(NC(=O)C1CC1C)C(=O)N1CCCC(N1)C(=O)OCC(C)(C)C2", "Assigned Class": "inactive"}
{"Compound": "CC(=O)OC12COC1CC(O)C1(C)C(=O)C(O)C3=C(C)C(OC(=O)C(O)C(NC(=O)OC(C)(C)C)c4ccccc4)CC(O)(C(OC(=O)c4ccccc4)C21)C3(C)C (stereo not given) + CCn1c(-c2cccnc2C(C)OC)c2c3cc(ccc31)N1CCOC(CC(NC(=O)C(C(C)C)N(C)C(=O)C3(F)CCN(C(=O)C#CC(C)(C)N(C)C)CC3)C(=O)N3CCCC(N3)C(=O)OCC(C)(C)C2)C1", "Assigned Class": "inactive"}
{"Compound": "C=CC(=O)N1CCN(c2nc(OCC3CCCN3C)nc3c(F)c(-c4nc(N)cc(C)c4C(F)(F)F)c(Cl)cc23)C(C)C1 (stereo not given) + CCn1c(-c2cccnc2C(C)OC)c2c3cc(ccc31)N1CCOC(CC(NC(=O)C(C(C)C)N(C)C(=O)C3(F)CCN(C(=O)C#CC(C)(C)N(C)C)CC3)C(=O)N3CCCC(N3)C(=O)OCC(C)(C)C2)C1", "Assigned Class": "inactive"}
{"Compound": "C[C@@H](NC(=O)c1ncnc(N)c1Cl)c1ncc(C(=O)Nc2cc(C(F)(F)F)c(Cl)cn2)s1 + CCn1c(-c2cc(N3CCN(C)CC3)cnc2C(C)OC)c2c3cc(ccc31)-c1csc(n1)CC(NC(=O)C1CC1C)C(=O)N1CCCC(N1)C(=O)OCC(C)(C)C2", "Assigned Class": "inactive"}
{"Compound": "O=C(c1ccc(F)c(F)c1Nc1ccc(I)cc1F)N1CC(O)([C@@H]2CCCCN2)C1 + CCn1c(-c2cccnc2C(C)OC)c2c3cc(ccc31)N1CCOC(CC(NC(=O)C(C(C)C)N(C)C(=O)C3(F)CCN(C(=O)C#CC(C)(C)N(C)C)CC3)C(=O)N3CCCC(N3)C(=O)OCC(C)(C)C2)C1", "Assigned Class": "active"}
{"Compound": "CC(C)NCC(C(=O)N1CCN(c2ncnc3c2C(C)CC3O)CC1)c1ccc(Cl)cc1 (stereo not given) + CCn1c(-c2cccnc2C(C)OC)c2c3cc(ccc31)N1CCOC(CC(NC(=O)C(C(C)C)N(C)C(=O)C3(F)CCN(C(=O)C#CC(C)(C)N(C)C)CC3)C(=O)N3CCCC(N3)C(=O)OCC(C)(C)C2)C1", "Assigned Class": "inactive"}
{"Compound": "CCC(CC)c1cc(NC2CCC(N)C2)n2nccc2n1 (stereo not given) + CCn1c(-c2cccnc2C(C)OC)c2c3cc(ccc31)N1CCOC(CC(NC(=O)C(C(C)C)N(C)C(=O)C3(F)CCN(C(=O)C#CC(C)(C)N(C)C)CC3)C(=O)N3CCCC(N3)C(=O)OCC(C)(C)C2)C1", "Assigned Class": "inactive"}
{"Compound": "NC1c2ccccc2OC12CCN(c1cnc3c(N4CCCc5ncccc54)n[nH]c3n1)CC2 (stereo not given) + CCn1c(-c2cccnc2C(C)OC)c2c3cc(ccc31)N1CCOC(CC(NC(=O)C(C(C)C)N(C)C(=O)C3(F)CCN(C(=O)C#CC(C)(C)N(C)C)CC3)C(=O)N3CCCC(N3)C(=O)OCC(C)(C)C2)C1", "Assigned Class": "active"}
{"Compound": "CC1(O)CCCC1n1c(=O)c(C(F)F)cc2cnc(NC3CCN(S(C)(=O)=O)CC3)nc21 (stereo not given) + CCn1c(-c2cccnc2C(C)OC)c2c3cc(ccc31)N1CCOC(CC(NC(=O)C(C(C)C)N(C)C(=O)C3(F)CCN(C(=O)C#CC(C)(C)N(C)C)CC3)C(=O)N3CCCC(N3)C(=O)OCC(C)(C)C2)C1", "Assigned Class": "inactive"}
{"Compound": "CCC(CC)c1cc(NC2CCC(N)C2)n2nccc2n1 (stereo not given) + CCn1c(-c2cc(N3CCN(C)CC3)cnc2C(C)OC)c2c3cc(ccc31)-c1csc(n1)CC(NC(=O)C1CC1C)C(=O)N1CCCC(N1)C(=O)OCC(C)(C)C2", "Assigned Class": "inactive"}
